The values you see were collected from patent US20250171534A1.

# Lookup of reported kon keyed by entry
Biological target: T1, LILRB1-ECD-HIS (SinoBiological Cat #: 16014-H02H) (human, UniProt Q8NHL6 24-461)
T1 construct: Bought protein; also called monomeric antigen LILRB1-ECD-HIS; not shown: His tag
T1 sequence (Q8NHL6 other isoform, or with tags, fused parts or gaps H02H H02H): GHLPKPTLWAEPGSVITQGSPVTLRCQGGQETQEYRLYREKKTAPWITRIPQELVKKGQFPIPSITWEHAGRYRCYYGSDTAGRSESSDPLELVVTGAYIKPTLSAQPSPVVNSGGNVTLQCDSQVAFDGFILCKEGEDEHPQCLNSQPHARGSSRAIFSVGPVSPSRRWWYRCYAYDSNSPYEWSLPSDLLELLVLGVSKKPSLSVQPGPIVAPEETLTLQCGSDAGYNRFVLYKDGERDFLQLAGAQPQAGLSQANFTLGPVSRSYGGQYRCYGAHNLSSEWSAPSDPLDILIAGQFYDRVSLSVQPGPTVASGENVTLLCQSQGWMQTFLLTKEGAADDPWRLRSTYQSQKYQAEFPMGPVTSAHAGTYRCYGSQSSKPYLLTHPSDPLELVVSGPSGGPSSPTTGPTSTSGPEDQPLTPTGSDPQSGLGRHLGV
Assay: SPR (Carterra), LILRB1-ECD-his
Field format: number, assumed M⁻¹ s⁻¹, no unit text.

{"binder": "D2M002-126 (antibody, V domains shown, Humanized and optimized variant of D2M002-026) VH: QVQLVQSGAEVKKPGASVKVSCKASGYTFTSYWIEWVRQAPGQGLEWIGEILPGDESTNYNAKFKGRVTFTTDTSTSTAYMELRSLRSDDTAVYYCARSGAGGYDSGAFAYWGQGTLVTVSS VL: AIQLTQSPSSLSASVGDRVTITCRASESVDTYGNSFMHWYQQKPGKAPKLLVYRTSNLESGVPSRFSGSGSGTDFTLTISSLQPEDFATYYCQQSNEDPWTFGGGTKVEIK", "value.units": "M⁻¹ s⁻¹", "kon": 42100}
{"binder": "D2M002-103 (antibody, V domains shown, also called P212_F01) VH: QVQLVQSGAEVKKPGASVKVSCKASGYTFTRYVMHWVRQAPGQRLEWMGWINPNNEETKYSQKFKGRVTLTRDTSASTAYMELSSLRSEDTAVYYCARADLEILPYYDHARYAMDYWGQGTLVTVSS VL: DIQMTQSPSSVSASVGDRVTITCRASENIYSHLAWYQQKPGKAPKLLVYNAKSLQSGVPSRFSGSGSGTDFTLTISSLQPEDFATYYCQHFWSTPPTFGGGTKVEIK", "value.units": "M⁻¹ s⁻¹", "kon": 206000}

Briefly, kon measured for D2M002-026 (antibody, V domains shown, Hit; also called clone #26) VH: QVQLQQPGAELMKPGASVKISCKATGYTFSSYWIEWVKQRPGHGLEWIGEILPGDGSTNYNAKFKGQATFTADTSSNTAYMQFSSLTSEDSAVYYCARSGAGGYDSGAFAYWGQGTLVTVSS VL: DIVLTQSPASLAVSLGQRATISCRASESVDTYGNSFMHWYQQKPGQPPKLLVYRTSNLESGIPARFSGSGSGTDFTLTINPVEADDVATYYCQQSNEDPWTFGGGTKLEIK : 73100

Briefly, kon measured for D2M002-002 (antibody, V domains shown, Hit from immunised mice; also called clone #2; anti-LILRB1/2 clone #2) VH: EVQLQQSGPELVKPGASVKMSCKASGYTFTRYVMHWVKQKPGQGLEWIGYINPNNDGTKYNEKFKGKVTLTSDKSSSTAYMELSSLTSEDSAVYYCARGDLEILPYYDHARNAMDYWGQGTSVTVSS VL: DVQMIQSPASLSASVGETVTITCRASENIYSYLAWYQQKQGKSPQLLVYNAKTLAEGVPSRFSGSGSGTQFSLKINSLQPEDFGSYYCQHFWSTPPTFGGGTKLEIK : 61300
